From: the supplement of paper PMC7877785

- TEST SUMMARY: self-splicing fitness, log relative to wild type (ln ratio); higher = more splicing; Tetrahymena group I intron in knt gene, E. coli kanamycin selection, DiMSum; sequences stand for … in CUCUCU…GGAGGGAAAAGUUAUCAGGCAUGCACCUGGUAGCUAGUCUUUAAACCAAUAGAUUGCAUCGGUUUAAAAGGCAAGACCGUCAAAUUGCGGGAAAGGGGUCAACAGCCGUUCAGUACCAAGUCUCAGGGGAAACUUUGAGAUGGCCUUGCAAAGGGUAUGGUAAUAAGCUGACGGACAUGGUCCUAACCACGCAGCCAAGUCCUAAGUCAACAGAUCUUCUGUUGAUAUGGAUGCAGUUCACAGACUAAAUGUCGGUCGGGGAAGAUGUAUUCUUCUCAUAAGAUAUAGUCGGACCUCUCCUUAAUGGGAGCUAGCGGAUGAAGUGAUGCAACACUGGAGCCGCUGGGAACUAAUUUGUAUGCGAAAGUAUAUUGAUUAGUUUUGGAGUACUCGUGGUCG;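 also: selection with 25 µg/mL kanamycin versus none on LB agar overnight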
- SETTINGS: 37 °C
MEASUREMENT TYPE: self-splicing fitness (ln)

| POLYMER SEQUENCE | RECORDED NUMBER |
| --- | --- |
| UCGCAGCAAUAUUACGGAGU | -1.92 |
| CUACAGCAAUAUUACGGGCG | -0.108 |
| GAGUAGCAAUAUUACGGUAC | -2.01 |
| CAUGAGCAAUAUUACGCCUG | -2.02 |
| AAUGAGCAAUAUUACGGACC | -1.08 |
| AGAGAGCAAUAUUACGAGUC | -2.23 |
| AGUAAGCAAUAUUACGCCCU | -0.62 |
| GAAGAGCAAUAUUACGUCGU | -2.24 |
| CCGAAGCAAUAUUACGUUUU | -3.26 |
| UGGCAGCAAUAUUACGGCAC | -1.17 |
| ACUUAGCAAUAUUACGAUAA | -0.457 |
| GUCAAGCAAUAUUACGGGGU | -4.15 |
| UCAAAGCAAUAUUACGAGGG | -1.03 |
| AGCGAGCAAUAUUACGCCGA | -0.607 |
| AGAUAGCAAUAUUACGUAUG | -2.3 |
| AGUUAGCAAUAUUACGUGAA | -2.31 |
| CUUCAGCAAUAUUACGCGGA | -2.74 |
| CAACAGCAAUAUUACGGGUA | -1.22 |
| CGGUAGCAAUAUUACGACGC | -0.431 |
| UUAGAGCAAUAUUACGAACG | -0.303 |
| AGUGAGCAAUAUUACGAGAG | -2.36 |
| AUUGAGCAAUAUUACGCUUG | -0.989 |
| CACUAGCAAUAUUACGGCAG | 0.189 |
| AUGGAGCAAUAUUACGCCAU | -2.17 |
| UGUUAGCAAUAUUACGCACU | -0.553 |
| GAUGAGCAAUAUUACGGGAU | -2.36 |
| CCUGAGCAAUAUUACGGCGU | -2.88 |
| GUAGAGCAAUAUUACGUGGC | -1.29 |
| AUCGAGCAAUAUUACGUGUG | -2.92 |
| CGAAAGCAAUAUUACGUGCU | -2.41 |
| GUACAGCAAUAUUACGGAGU | -1.88 |
| AGACAGCAAUAUUACGUAUA | -0.807 |
| UUGAAGCAAUAUUACGACCU | 0.587 |
| GCGCAGCAAUAUUACGGACG | -0.91 |
| CUCUAGCAAUAUUACGACAC | -2.49 |
| AUACAGCAAUAUUACGUCCU | 1.06 |
| GCGUAGCAAUAUUACGUUAA | -1.74 |
| UUUAAGCAAUAUUACGCGGG | -1.63 |
| AAAAAGCAAUAUUACGAAGA | -1.56 |
| CGUAAGCAAUAUUACGCAGA | -2.67 |
| GAAGAGCAAUAUUACGACUC | -0.113 |
| AUUAAGCAAUAUUACGAGUG | -2.37 |
| UUUGAGCAAUAUUACGCAGG | -1.34 |
| CUAAAGCAAUAUUACGCGUU | -2.67 |
| GGGUAGCAAUAUUACGUUUC | -0.68 |
| AUGCAGCAAUAUUACGGCUC | -0.0582 |
| UCAUAGCAAUAUUACGAUAG | -1.79 |
| AUAAAGCAAUAUUACGUGUA | -0.325 |
| AGAGAGCAAUAUUACGCGCG | -1.3 |
| UUGAAGCAAUAUUACGAUCG | 0.264 |
| GUCCAGCAAUAUUACGGUGA | -0.131 |
| CCAUAGCAAUAUUACGCGGG | -2.87 |
| CAGAAGCAAUAUUACGUGCG | 0.0457 |
| AAUUAGCAAUAUUACGCGAA | -1.89 |
| CCAUAGCAAUAUUACGGAAC | -1.55 |
| CAAUAGCAAUAUUACGUUCA | -2.59 |
| CGUUAGCAAUAUUACGUGCA | -0.0413 |
| GGGGAGCAAUAUUACGCUAA | 0.376 |
| AAUUAGCAAUAUUACGAUGC | -0.872 |
| CAACAGCAAUAUUACGCUGA | -3.02 |
| GGUUAGCAAUAUUACGACAU | 0.332 |
| UAGAAGCAAUAUUACGCGAA | -0.748 |
| UGAGAGCAAUAUUACGUUCC | -2.11 |
| UGACAGCAAUAUUACGGGGU | -2.38 |
| GAGGAGCAAUAUUACGAUCC | -1.12 |
| AAUUAGCAAUAUUACGGCUG | 0.339 |
| GUCGAGCAAUAUUACGGGUU | -1.04 |

* * *

- TEST SUMMARY: self-splicing fitness, log relative to wild type (ln ratio); higher = more splicing; Tetrahymena group I intron in knt gene, E. coli kanamycin selection, DiMSum; sequences stand for … in CUCUCU…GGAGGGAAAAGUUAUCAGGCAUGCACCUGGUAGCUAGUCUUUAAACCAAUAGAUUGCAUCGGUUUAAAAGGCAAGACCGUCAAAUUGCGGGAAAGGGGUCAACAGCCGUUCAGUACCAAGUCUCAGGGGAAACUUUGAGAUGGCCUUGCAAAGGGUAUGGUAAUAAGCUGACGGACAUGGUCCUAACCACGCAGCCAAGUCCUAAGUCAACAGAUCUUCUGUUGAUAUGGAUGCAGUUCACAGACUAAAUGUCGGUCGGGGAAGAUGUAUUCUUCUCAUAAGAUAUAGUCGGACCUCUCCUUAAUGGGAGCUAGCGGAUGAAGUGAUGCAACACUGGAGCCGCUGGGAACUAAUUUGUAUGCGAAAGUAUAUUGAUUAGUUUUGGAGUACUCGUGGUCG
- SETTINGS: 37 °C
Give Y when the value for self-splicing fitness (ln) is at least -1. Give N when it is less.

| POLYMER SEQUENCE | LABEL VALUE |
| --- | --- |
| AUCCAGCAAUAUUACGUUCG | Y |
| CGUGAGCAAUAUUACGCCUC | N |
| GGUAAGCAAUAUUACGAGCU | N |
| UGUAAGCAAUAUUACGCGAC | N |
| CUAGAGCAAUAUUACGCACU | N |
| CCCAAGCAAUAUUACGGGGU | N |
| UGUUAGCAAUAUUACGGCGG | Y |
| CACUAGCAAUAUUACGACAU | N |
| CAGAAGCAAUAUUACGCAGC | N |
| GGGUAGCAAUAUUACGUCUU | Y |
| CUCGAGCAAUAUUACGAGUG | N |
| CAAAAGCAAUAUUACGGAUA | N |
| AAGGAGCAAUAUUACGAUUA | N |
| GAAGAGCAAUAUUACGCUGU | N |
| UUUAAGCAAUAUUACGAUCA | Y |
| UCGAAGCAAUAUUACGCAUA | N |
| CAUCAGCAAUAUUACGGGUU | Y |
| UUCCAGCAAUAUUACGAGGG | N |
| CCAGAGCAAUAUUACGCGGU | N |
| UACUAGCAAUAUUACGGAUA | Y |
| CUACAGCAAUAUUACGAAUC | N |
| UGUAAGCAAUAUUACGAACA | Y |
| GAUCAGCAAUAUUACGAGGU | N |
| CUCUAGCAAUAUUACGCCGU | N |
| CCUAAGCAAUAUUACGACGG | N |
| GUUUAGCAAUAUUACGAAGC | N |
| GGCAAGCAAUAUUACGCACA | Y |
| AGCGAGCAAUAUUACGGAUC | N |
| CGCCAGCAAUAUUACGGGGG | N |
| UGCGAGCAAUAUUACGAAUC | N |
| GCCUAGCAAUAUUACGUUUA | N |
| ACGCAGCAAUAUUACGGCGA | Y |
| CUUCAGCAAUAUUACGGUGG | N |
| GCCGAGCAAUAUUACGGGGA | Y |
| AAUCAGCAAUAUUACGCAUA | Y |
| UUAGAGCAAUAUUACGCACC | N |
| GGCGAGCAAUAUUACGUUAU | N |
| CACCAGCAAUAUUACGGCUU | Y |
| UCUAAGCAAUAUUACGUUGG | N |
| AUAGAGCAAUAUUACGCCUA | Y |
| CUAGAGCAAUAUUACGACCU | N |
| CGCCAGCAAUAUUACGACUG | Y |
| GAUUAGCAAUAUUACGUAAC | Y |
| GUCUAGCAAUAUUACGCAUC | Y |
| CUUUAGCAAUAUUACGUGUU | N |
| CGAGAGCAAUAUUACGUUUG | N |
| AGCGAGCAAUAUUACGCAGU | N |
| GGGAAGCAAUAUUACGUGAU | N |
| GGGCAGCAAUAUUACGUCAU | Y |
| GGCAAGCAAUAUUACGUUCU | Y |
| CAGCAGCAAUAUUACGCCCG | Y |
| GGUCAGCAAUAUUACGGAUC | Y |
| GGUAAGCAAUAUUACGCAAA | N |
| GGUUAGCAAUAUUACGUUGA | N |
| AUGAAGCAAUAUUACGGGGC | N |
| CCGGAGCAAUAUUACGAUUC | N |
| CCCGAGCAAUAUUACGAGAU | N |
| AUGGAGCAAUAUUACGCUCG | Y |
| AGGGAGCAAUAUUACGGACC | N |
| AUAAAGCAAUAUUACGGAAC | Y |
| CCGCAGCAAUAUUACGGGCG | N |
| CUGUAGCAAUAUUACGUAAA | N |
| UGCUAGCAAUAUUACGAUUU | N |
| UUCAAGCAAUAUUACGUAUG | N |
| ACAGAGCAAUAUUACGACAG | N |
| GAAAAGCAAUAUUACGCCCA | Y |
